TESTED_TARGET: T1, human HVEM (human, UniProt Q92956 39-202, limits assumed); also: test concentration or dose not given here
T1 sequence (looked up): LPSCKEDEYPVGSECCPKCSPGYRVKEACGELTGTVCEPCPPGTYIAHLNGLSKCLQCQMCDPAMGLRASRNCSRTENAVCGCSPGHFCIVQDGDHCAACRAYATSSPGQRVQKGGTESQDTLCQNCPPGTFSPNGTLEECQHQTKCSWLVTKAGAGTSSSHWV
PROCEDURE_DETAILS: ELISA
This section presents binders with their documented ELISA signal values.
MEASURED_ENDPOINT: ELISA signal

# BINDER, TEST_VALUE
records = [
    ("Ab_004 (H5S14-24A4A) (antibody, V domains shown, also called Ab_4) VH: EVQLQQSGPELVKPGTSVKISCKTSGYTITEYTMHWVKQSHGKSLEWIGGINPNNGGTINNQKFKDKATLTVDMSSSTAYMELRSLTSEDSAVYYCAGSVVDRYWYFDVWGAGTTVTVSS VL: QIVLTQSPAIMSASPGEKVTISCSASSSVSYMYWYQQKPGSSPKPWIYRTSNLASGVPARFSGSGSGTSYSLTISSMEAEDAATYYCQQYHSYPLTFGAGTKLELK", 2.42),
    ("Ab_035 (H5S15-9A10A) (antibody, V domains shown, also called Ab_35) VH: DVQLVESGGGLVQPGGSRKLSCAASGFTFSDFGMHWVRQAPEKGLEWVAHISSGSSTIYYADTVKGRFTISRDNPKNTLFLQMTSLRSEDTAMYYCARGAYGNFAWFPYWGQGTLVTVSA VL: DVVMTQTPLSLPVSLGDQASISCRSSQSLVHTNGNTYLHWYLQKPGQSPRLLIYKVSNRFSGVPDRFSGGGSGTDFTLKISRVEAEDLGVYFCSQSTHVPTFGSGTKLEIK", 3.2),
    ("Ab_014 (H5S14-15A12A) (antibody, V domains shown, also called Ab_14) VH: QVQLKQSGPGLVQPSQSLSITCTVSGFSLTSYGVHWVRQSPGKGLEWLGVIWSGGSTDYNAAFICRLSISKDSSKSQVFFKMNSLQADDTAMYYCARNLGGSWVDYWGQGTSVTVSS VL: ETTVTQSPASLSVATGEKVTIRCITSTDIDDDMNWYQQKPGEPPKLLISEGNTLRPGVPSRFSSSGYGTDFVFTIENTLSEDVADYYCLQSDNMPYTFGGGTKLEIK", 0.05),
]

Attribution: patent US20240317871A1
